# target or system: Antithrombin III (plasma purified human AT-III, Molecular Innovations), as AT-III/UFH complex
measured property: K0.5-mut/K0.5-wt (against Catalyst Biosciences WT FIXa)

**Q:** Provide one value: measured K0.5-mut/K0.5-wt (against Catalyst Biosciences WT FIXa) of FIXa-R318Y/R338E/Y345A/R403E/E410N (protein) chain 1: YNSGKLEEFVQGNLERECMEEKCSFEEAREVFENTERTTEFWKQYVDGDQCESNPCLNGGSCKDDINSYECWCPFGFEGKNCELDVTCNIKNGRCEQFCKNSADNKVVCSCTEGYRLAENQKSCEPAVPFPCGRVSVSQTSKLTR chain 2: VVGGEDAKPGQFPWQVVLNGKVDAFCGGSIVNEKWIVTAAHCVETGVKITVVAGEHNIEETEHTEQKRNVIRIIPHHNYNAAINKYNHDIALLELDEPLVLNSYVTPICIADKEYTNIFLKFGSGYVSGWGRVFHKGYSALVLQYLRVPLVDRATCLESTKFTIANNMFCAGFHEGGRDSCQGDSGGPHVTEVEGTSFLTGIISWGEECAMKGKYGIYTKVSEYVNWIKNKTKLT
**A:** > 517

Just for reference, patent US20210230570 is where these values come from.
